Tested on: AncSZ;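 also: 11-residue human phosphosite peptides and single-mutation variants displayed on the E. coli surface, counted by deep sequencing, each peptide's frequency after selection divided by its frequency in the unselected input library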;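 also: frequency after pTyr selection over input frequency; kinase dosed for 20-30% of maximal phosphorylation in three min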
Experiment: phosphorylation enrichment, bacterial display (enrichment ratio); higher = better substrate or ligand; peptides without Tyr show the background
measurementKind: phosphorylation enrichment
// keep it numeric: no unit symbol after the value

Example sequences with recorded phosphorylation enrichment:
> print(dat)
                   inputsequence  measvalue
1  FEGHSYSACTT [MMP9_Y241_R239H]       0.95
2       TYTVSYLPDMS [FLNC_Y1602]       1.05
3   VKPENYWRLDI [VHL_Y175_R176W]       1.13
4       PEVRRYVLPLN [RPE65_Y368]       1.41
5   ALAHKYQGGGG [HBB_Y146_H147Q]      0.824

Ask: Endpoint output: phosphorylation enrichment of PMWHPYKVDVT [TP53TG5_Y255] . Value?
Reply: 1.09

Ask: Then what about the sequence GEETDYTPVWC [UROD_Y30] ?
Reply: 1.62

Ask: Then what about the sequence FRPPFYHRDCM [HGD_Y334_N337D_YF] ?
Reply: 0.895

Ask: Then what about the sequence IFLADYRIMEG [ALOX12B_Y318_YF] ?
Reply: 0.689

Ask: Then what about the sequence HQPGEYIFHAE [FLT3_Y416] ?
Reply: 1.77

Ask: Then what about the sequence EKLQKYFRQNP [EHHADH_Y682_YF] ?
Reply: 0.802
